Biological target: T1, SFVmac PR-RT WT (Simian foamy virus from macaques …, UniProt P23074 1-751)
T1 sequence: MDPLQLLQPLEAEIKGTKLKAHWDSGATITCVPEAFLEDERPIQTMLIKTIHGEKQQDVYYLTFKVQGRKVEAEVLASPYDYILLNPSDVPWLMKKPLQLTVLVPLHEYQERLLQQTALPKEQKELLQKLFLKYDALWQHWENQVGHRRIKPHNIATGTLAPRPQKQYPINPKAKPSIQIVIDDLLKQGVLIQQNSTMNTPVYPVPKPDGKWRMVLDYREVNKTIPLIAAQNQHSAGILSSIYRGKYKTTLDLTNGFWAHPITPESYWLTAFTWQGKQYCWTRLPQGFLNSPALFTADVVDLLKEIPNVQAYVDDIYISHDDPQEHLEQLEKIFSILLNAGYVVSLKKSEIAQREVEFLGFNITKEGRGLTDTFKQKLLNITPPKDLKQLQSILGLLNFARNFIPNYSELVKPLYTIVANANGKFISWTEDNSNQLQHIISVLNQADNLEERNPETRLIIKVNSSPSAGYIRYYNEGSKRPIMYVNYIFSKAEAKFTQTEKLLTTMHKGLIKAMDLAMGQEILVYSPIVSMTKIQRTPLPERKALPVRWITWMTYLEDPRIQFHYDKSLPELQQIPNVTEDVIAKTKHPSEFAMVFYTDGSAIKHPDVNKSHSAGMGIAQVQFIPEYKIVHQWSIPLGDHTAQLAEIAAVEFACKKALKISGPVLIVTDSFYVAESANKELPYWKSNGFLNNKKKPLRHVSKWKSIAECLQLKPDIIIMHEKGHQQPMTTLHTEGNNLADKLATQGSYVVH
Assay: fluorescence anisotropy; Fluorescence equilibrium titration, 5 nM DNA, 25 C; buffer, salt and pH not given in the material (refs 14, 43)
Details: protein: recombinant; label: 5' DY647 on template (S6); 24 bp; template 5' overhang 5 nt and 3' overhang 11 nt
pKd: −log10 of the molar value.
endpoint_label: pKd

- binder: "24/40-mer DNA/DNA primer/template (dsDNA) DNA 1: CTAATTCCGCTTTCCCCTCTCCTGGTGATCCTTTCCATCC DNA 2: ATCACCAGGAGAGGGGAAAGCGGA"
  reported: 8.02

All figures here come from paper PMC4359774.
